log10(CH4 permeability) values, listed per item
Could you please treat all values as log10 of CH4 permeability in Barrer?

Here's what some known entries look like.
- compound: "*Oc1ccc(C(C)(C)c2ccc(OCCC(*)O)cc2)cc1 (repeat unit)"
  log10(CH4 permeability): -1.70
- compound: "*C(=O)c1ccc([Si](C)(C)c2ccc(C(*)=O)cc2)cc1 (repeat unit)"
  log10(CH4 permeability): 0.14
- compound: "*CC(*)(C)C(=O)OC(C)(C)C (repeat unit)"
  log10(CH4 permeability): -0.14
- compound: "*C(C)=C(*)CCCCCCC (repeat unit)"
  log10(CH4 permeability): 1.92
- compound: "*Oc1ccc(S(=O)(=O)c2ccc(Oc3ccc(Oc4ccc(*)cc4)cc3)cc2)cc1 (repeat unit)"
  log10(CH4 permeability): -0.75
- compound: "*c1ccc2c(c1)C1c3ccccc3C2c2cc(N3C(=O)c4ccc(C(c5ccc6c(c5)C(=O)N(*)C6=O)(C(F)(F)F)C(F)(F)F)cc4C3=O)ccc21 (repeat unit)"
  log10(CH4 permeability): 0.86
- compound: "*Oc1ccc(N2C(=O)CCC23CCC(=O)N3c2ccc(Oc3c(F)c(F)c(COC(C4CCCC(C(OCc5c(F)c(F)c(*)c(F)c5F)(C(F)(F)F)C(F)(F)F)C4)(C(F)(F)F)C(F)(F)F)c(F)c3F)cc2)cc1 (repeat unit)"
  log10(CH4 permeability): -0.60
- compound: "*CC=C(C*)[Si](OC(C)C)(OC(C)C)OC(C)C (repeat unit)"
  log10(CH4 permeability): 2.42

What log10(CH4 permeability) value was documented for this compound, *C/C=C(/C)C* (repeat unit) ?
1.47

Repeat for the following compound: *Oc1ccc(C23CC4CC(C2)CC(c2ccc(Oc5ccc(S(=O)(=O)c6ccc(*)cc6)cc5)cc2)(C4)C3)cc1 (repeat unit)
-0.40

Repeat for the following compound: *C=C(*)C(C)(C)C (repeat unit)
1.93

Repeat for the following compound: *C(=O)c1ccc(C2(c3ccc(C(=O)c4ccc(Oc5ccc(C(=O)c6cccc(C(=O)c7ccc(Oc8ccc(*)cc8)cc7)c6)cc5)cc4)cc3)OC(=O)c3ccccc32)cc1 (repeat unit)
-1.56

Repeat for the following compound: *Nc1ccc(Cc2ccc(NC(=O)CN3C(=O)c4ccc(C(*)=O)cc4C3=O)cc2)cc1 (repeat unit)
-2.00

Repeat for the following compound: *=CC1CC(C=*)C2C(=O)N(C3CCCCC3)C(=O)C12 (repeat unit)
-0.10

Repeat for the following compound: *c1ccc2c(-c3c(O)ccc4cc(N5C(=O)c6ccc(C(c7ccc8c(c7)C(=O)N(*)C8=O)(C(F)(F)F)C(F)(F)F)cc6C5=O)ccc34)c(O)ccc2c1 (repeat unit)
-1.05

Repeat for the following compound: *OC1OC(COCC)C(*)C(OCC)C1OCC (repeat unit)
0.96

Repeat for the following compound: *c1ccc(Oc2ccc(C(*)(c3ccccc3)C(F)(F)F)cc2)cc1 (repeat unit)
-0.19
